Test System: GORASP2, Q9H8Y8
Measurement Description: holdup assay
Set-up: key: below the threshold = too weak to quantify, mostly under pKd 3.1 to 4
Condition: plain residues with an end cap or a label only (N-terminal biotin on a linker: ado-ado)
Readout Name: pKd

- HSGYRLNDYV [CLDN14, O95500]: 3.85
- QSLNRMEYIV [JAG1, P78504]: 5.14
